- measured target: PI3-kinase p110-delta/p85-alpha (Homo sapiens)
- Sequence (P27986 whole entry): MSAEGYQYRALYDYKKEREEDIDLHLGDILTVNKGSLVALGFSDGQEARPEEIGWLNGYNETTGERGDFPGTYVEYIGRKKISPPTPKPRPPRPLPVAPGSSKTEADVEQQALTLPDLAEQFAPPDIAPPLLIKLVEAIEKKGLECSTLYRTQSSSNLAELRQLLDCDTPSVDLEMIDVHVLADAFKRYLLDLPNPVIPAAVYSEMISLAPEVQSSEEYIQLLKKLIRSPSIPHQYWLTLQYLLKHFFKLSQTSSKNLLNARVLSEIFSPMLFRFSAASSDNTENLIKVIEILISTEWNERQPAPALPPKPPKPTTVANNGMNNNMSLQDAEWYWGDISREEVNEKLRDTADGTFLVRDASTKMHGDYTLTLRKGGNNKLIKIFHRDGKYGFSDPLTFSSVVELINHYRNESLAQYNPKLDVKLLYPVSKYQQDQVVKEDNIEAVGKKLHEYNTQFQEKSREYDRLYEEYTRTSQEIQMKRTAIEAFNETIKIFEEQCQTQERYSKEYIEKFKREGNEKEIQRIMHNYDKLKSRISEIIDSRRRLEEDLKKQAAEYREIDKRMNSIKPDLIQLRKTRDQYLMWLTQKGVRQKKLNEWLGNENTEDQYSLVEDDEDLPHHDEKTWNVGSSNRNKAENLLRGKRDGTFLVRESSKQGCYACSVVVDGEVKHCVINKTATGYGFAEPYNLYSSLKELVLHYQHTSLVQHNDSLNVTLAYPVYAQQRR
- Sequence (O00329 whole entry): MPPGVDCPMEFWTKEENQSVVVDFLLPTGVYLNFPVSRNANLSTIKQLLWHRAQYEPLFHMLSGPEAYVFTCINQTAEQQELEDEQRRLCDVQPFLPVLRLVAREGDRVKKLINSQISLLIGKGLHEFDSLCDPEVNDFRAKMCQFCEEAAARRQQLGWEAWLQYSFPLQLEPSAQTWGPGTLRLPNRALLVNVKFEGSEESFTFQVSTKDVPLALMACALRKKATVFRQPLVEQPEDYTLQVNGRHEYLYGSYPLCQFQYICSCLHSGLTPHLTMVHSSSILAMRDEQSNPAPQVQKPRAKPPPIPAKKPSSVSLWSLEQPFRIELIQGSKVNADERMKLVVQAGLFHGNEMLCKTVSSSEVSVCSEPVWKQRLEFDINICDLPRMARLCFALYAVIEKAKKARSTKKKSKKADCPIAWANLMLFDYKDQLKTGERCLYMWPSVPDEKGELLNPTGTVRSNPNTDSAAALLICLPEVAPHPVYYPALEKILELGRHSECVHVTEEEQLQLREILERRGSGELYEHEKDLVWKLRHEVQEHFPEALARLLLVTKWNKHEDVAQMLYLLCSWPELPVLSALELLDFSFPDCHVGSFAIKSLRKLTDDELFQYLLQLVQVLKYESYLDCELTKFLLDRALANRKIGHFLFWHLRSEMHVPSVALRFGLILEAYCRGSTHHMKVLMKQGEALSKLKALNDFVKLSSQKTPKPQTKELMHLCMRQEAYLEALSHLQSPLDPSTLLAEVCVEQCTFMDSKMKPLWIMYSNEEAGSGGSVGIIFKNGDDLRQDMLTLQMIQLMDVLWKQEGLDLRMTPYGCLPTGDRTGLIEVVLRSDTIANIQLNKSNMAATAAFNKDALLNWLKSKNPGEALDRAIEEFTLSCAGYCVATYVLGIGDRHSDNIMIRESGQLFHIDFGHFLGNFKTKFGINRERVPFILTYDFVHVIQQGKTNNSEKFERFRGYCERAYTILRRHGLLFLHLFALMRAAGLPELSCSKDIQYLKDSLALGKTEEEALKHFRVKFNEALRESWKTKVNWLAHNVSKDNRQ
- measurement description: Inhibition of N-terminal His6-tagged recombinant full-length human p110delta/untagged recombinant full length p85alpha expressed in baculovirus infected Sf21 cells using phosphatidylinositol as substrate in presence of gamma-32P-ATP after 5 mins by thin layer chromatographic method
pIC50: −log10 of the molar value.
parameter measured: pIC50

Need pIC50, item C=C(C)c1nn(Cc2cc3cccc(C)c3c(=O)n2-c2ccccc2)c2ncnc(N)c12
> 7.00

Need pIC50, item Cc1cccc2cc(Cn3nc(C#C[C@@H](C)O)c4c(N)ncnc43)n(C3CC3)c(=O)c12
> 7.00

Need pIC50, item CCC(Nc1ncnc2[nH]cnc12)c1cc2cccc(C)c2c(=O)n1-c1ccccc1C (stereo not drawn)
> 7.00

Need pIC50, item C[C@H](Nc1ncnc2[nH]cnc12)c1cc2cccc(Cl)c2c(=O)n1C1CC1
> 7.00

Need pIC50, item Cc1cccnc1-n1c(Cn2nc(-c3cccc(O)c3)c3c(N)ncnc32)cc2cccc(C)c2c1=O
> 7.00

Need pIC50, item Cc1ccccc1-n1c(Cn2nc(-c3cccc(O)c3)c3c(N)nccc32)cc2cccc(C)c2c1=O
> 7.00

Need pIC50, item Cc1cccc2cc(Cn3nc(-c4cc(O)cc(F)c4)c4c(N)ncnc43)n(C3CCC3)c(=O)c12
> 7.00

Need pIC50, item Cc1cccc2cc(Cn3nc(C#CC4CC4)c4c(N)ncnc43)n(-c3ccccc3F)c(=O)c12
> 6.00

Need pIC50, item Cc1cccc2cc([C@H](C)Nc3ncnc4[nH]cc(F)c34)n(C3CC3)c(=O)c12
> 7.00

Need pIC50, item Cc1ccccc1-n1c(Cn2nc(-c3cc(O)cc(F)c3)c3c(N)ncnc32)cc2cccc(F)c2c1=O
> 7.00

Need pIC50, item Cc1cccc2cc(C(C)Nc3ncnc4[nH]cnc34)n(-c3ccccc3F)c(=O)c12 (stereo not drawn)
> 7.00

Need pIC50, item Cc1cccc2cc(C(C)Nc3ncnc4[nH]cnc34)n(-c3cc(F)cc(F)c3)c(=O)c12 (stereo not drawn)
> 7.00

Need pIC50, item Cc1cccc2cc(Cn3nc(-c4cccc(F)c4)c4c(N)ncnc43)n(-c3ccccc3F)c(=O)c12
> 5.00

Need pIC50, item CC(=O)Nc1nc2cc(-c3nn(Cc4cc5cccc(C)c5c(=O)n4-c4ccccc4C)c4ncnc(N)c34)ccc2o1
> 7.00

Need pIC50, item Nc1ncnc2c1c(-c1cccc(O)c1)nn2Cc1cc2cccc(Cl)c2c(=O)n1C1CC1
> 7.00

Need pIC50, item Cc1cccc2cc([C@H](C)Nc3nc(N)ncc3F)n(-c3ccccc3)c(=O)c12
> 7.00

Need pIC50, item Cc1ccccc1-n1c(Cn2nc(-c3ccc4nc(N)sc4c3)c3c(N)ncnc32)cc2cccc(C)c2c1=O
> 7.00

Need pIC50, item COc1cccc(-c2nn(Cc3cc4cccc(C)c4c(=O)n3-c3ccccc3C)c3ncnc(N)c23)c1
> 6.00

====

- measured target: PI3-kinase p110-alpha/p85-alpha (Homo sapiens)
- Sequence (P27986 whole entry): as the sequence (P27986 whole entry) above
- Sequence (P42336 whole entry): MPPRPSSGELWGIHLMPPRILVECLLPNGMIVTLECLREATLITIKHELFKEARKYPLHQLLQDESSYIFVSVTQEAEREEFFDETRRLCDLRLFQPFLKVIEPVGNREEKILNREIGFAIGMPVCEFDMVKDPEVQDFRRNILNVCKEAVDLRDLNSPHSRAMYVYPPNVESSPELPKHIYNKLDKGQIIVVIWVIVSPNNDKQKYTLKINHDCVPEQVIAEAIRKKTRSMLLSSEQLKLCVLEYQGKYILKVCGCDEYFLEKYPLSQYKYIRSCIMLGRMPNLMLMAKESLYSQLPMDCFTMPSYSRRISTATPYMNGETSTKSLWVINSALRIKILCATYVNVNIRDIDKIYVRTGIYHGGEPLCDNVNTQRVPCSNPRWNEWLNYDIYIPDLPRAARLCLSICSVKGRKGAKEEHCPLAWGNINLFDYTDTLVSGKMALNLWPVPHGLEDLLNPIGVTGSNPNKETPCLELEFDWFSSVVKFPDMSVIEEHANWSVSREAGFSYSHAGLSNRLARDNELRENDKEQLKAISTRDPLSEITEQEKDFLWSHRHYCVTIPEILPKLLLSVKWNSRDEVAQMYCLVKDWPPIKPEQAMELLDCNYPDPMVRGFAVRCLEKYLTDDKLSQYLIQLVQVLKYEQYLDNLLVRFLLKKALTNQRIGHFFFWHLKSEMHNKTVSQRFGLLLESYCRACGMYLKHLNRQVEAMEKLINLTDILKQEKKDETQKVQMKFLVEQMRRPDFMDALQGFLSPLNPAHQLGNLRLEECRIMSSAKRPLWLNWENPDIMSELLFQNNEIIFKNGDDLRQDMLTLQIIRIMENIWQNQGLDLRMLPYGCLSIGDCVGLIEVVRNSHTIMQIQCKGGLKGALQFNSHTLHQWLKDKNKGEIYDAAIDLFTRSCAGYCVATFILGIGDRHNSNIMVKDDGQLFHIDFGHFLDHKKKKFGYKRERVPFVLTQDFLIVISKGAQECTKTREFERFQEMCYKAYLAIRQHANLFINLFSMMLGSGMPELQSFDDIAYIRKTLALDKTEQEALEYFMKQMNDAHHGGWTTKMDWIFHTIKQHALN
- measurement description: Inhibition of N-terminal His6-tagged recombinant full-length human p110alpha/untagged recombinant full length human p85alpha expressed in baculovirus infected Sf21 cells using phosphatidylinositol as substrate in presence of gamma-32P-ATP after 5 mins by thin layer chromatographic method
pIC50: −log10 of the molar value.
Hi there, I'd appreciate the recorded pIC50 for every entry that follows.

Need pIC50, item Cc1ccccc1-n1c(CN(C)c2ncnc3[nH]cnc23)cc2cccc(C)c2c1=O
< 5.00

Need pIC50, item Cc1ccccc1-n1c(Cn2nc(Br)c3c(N)ncnc32)cc2cccc(C)c2c1=O
< 5.00

Need pIC50, item Cc1cccnc1-n1c(Cn2nc(-c3ccc(Cl)c(O)c3)c3c(N)ncnc32)cc2cccc(C)c2c1=O
< 5.00

The measurements presented in this section are drawn from ChEMBL document CHEMBL3879901.
